target.entity: CDK12 (nuclear staining in CAL-120 cells) (Homo sapiens, UniProt Q9NYV4)
Construct: endogenous in cells; host or cells: CAL-120 human breast cancer cells (DSMZ ACC 459)
Sequence (Q9NYV4 whole entry): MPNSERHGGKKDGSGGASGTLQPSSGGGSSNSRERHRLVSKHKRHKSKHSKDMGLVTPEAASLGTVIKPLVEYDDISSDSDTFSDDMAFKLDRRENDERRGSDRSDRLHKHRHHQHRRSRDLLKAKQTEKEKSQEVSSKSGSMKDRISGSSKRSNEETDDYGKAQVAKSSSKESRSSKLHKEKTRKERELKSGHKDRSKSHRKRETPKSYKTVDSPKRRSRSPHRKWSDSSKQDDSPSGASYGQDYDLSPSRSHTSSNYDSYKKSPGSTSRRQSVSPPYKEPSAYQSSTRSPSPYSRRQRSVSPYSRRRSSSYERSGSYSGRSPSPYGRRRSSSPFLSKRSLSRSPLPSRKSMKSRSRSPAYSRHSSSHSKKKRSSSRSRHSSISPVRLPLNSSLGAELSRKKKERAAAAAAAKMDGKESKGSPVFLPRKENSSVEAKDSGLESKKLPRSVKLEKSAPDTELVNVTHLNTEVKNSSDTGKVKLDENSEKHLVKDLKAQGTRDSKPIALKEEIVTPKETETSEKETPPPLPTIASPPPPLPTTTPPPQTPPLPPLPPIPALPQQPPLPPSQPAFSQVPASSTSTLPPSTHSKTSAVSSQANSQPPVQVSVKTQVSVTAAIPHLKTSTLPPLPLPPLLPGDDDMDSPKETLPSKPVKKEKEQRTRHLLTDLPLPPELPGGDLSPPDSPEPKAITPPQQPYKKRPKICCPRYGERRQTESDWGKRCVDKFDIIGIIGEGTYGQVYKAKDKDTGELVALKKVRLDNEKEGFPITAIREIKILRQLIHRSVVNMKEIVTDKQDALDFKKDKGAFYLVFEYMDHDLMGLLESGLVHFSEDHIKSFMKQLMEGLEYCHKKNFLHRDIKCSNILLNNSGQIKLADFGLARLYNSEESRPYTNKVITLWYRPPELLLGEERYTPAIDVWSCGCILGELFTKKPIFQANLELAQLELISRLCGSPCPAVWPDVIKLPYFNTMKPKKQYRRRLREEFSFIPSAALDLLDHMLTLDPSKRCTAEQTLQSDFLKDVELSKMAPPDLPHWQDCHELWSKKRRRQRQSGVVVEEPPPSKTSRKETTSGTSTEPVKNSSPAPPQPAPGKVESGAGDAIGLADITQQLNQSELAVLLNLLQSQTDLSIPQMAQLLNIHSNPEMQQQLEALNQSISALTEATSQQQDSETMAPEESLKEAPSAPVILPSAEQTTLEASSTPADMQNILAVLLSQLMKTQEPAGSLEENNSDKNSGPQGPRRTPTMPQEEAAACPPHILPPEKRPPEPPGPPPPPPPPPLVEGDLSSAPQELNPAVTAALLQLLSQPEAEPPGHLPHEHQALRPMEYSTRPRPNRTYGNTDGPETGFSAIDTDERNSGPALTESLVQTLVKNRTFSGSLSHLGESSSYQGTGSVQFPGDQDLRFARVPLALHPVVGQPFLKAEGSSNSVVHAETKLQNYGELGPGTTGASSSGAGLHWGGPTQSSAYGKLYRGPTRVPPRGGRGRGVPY
Sequence (O75909 whole entry partner): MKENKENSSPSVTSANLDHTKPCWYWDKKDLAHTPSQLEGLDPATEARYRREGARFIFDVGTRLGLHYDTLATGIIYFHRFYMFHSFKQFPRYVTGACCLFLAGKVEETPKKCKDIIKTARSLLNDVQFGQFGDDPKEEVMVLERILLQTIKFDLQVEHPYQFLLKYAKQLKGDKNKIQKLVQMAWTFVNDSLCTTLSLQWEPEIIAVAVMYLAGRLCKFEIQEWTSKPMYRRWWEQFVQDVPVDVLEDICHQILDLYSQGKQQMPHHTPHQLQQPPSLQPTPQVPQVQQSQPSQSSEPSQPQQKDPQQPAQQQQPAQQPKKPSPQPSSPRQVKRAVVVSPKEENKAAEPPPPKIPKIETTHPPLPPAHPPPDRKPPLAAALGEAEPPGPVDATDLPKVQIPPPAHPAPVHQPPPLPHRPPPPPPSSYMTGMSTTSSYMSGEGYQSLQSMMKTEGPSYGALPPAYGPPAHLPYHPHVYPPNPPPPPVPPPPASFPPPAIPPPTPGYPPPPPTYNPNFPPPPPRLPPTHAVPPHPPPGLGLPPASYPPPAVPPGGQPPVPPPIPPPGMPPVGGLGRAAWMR
measurement.description: CDK12 nuclear protein level: immunofluorescence/high content analysis (CAL-120)
Type: cell-based
condition.notes: ratio of IC50 CDK12 high ATP kinase assay to DC50 CDK12 degradation (IF, CAL-120)
metric: (IC50 CDK12 high ATP) to (Degradation DC50 CDK12) ratio

Look over these answered cases.
> print(dat)
                                   molecule  reading
1  CN1CCN(c2nc(NCc3nc4ccccc4[nH]3)n3ncc(Br)c3n2)CC1 [Example 18]    >5268
2  Fc1ccc(-c2cnn3c(NCc4nc5ccccc5[nH]4)nc(N4CCOCC4)nc23)cc1 [Example 106]     >876
3  CCc1cnn2c(NCc3nc4ccccc4[nH]3)nc(N3CCN(C)CC3)nc12 [Example 434]    >3530
4  Cc1cnn2c(NCc3nc4ccccc4[nH]3)nc(N(C)CC(C)(C)O)nc12 [Example 397]     >623
5  C[C@H]1CN(c2nc(NCc3nnc(-c4ccccc4)[nH]3)n3ncc(Br)c3n2)CCN1C.O=CO [Example 122]    >8081

Return value of (IC50 CDK12 high ATP) to (Degradation DC50 CDK12) ratio for input CN(C)CCOc1nc(NCc2nc3ccccc3[nH]2)n2ncc(Br)c2n1 [Example 399] , no commentary.
>303

Fill in reported (IC50 CDK12 high ATP) to (Degradation DC50 CDK12) ratio for this entry: Cn1cc(-c2cnn3c(NCc4nc5cc(Cl)c(Cl)cc5[nH]4)nc(N4CCOCC4)nc23)cn1 [Example 419]
>517

* * *

target.entity: CDK2/CycE (Homo sapiens, UniProt P24941)
measurement.description: CDK2/CycE kinase assay (TR-FRET, 2 mM ATP)
condition.notes: 2 mM ATP (high ATP); median; read-out: CDK2/CyclinE, 2 mM ATP (high ATP), IC50 (median)
metric: IC50

Answered examples (2):
> print(dat)
                                test.smiles  metric    reading
1  Fc1ccc2[nH]c(CNc3nc(N4CC5CCC(C4)N5)nc4c(C(F)(F)F)cnn34)nc2c1F    IC50  > 18.6 µM
2  CN1CCN(c2nc(NCc3nc4c(F)cccc4[nH]3)n3ncc(C4CC4)c3n2)CC1    IC50    > 20 µM

Pending compound:
Report measured IC50; entry is c1ccc2[nH]c(CNc3nc(N4C[C@@H]5C[C@H]4CO5)nc4c(C5CC5)cnn34)nc2c1
> 20 µM

* * *

This listing pairs compounds with measured pIC50.
target.entity: CDK2/CycE (Homo sapiens)
measurement.description: CDK2/CycE kinase assay (TR-FRET, 2 mM ATP)
condition.notes: 2 mM ATP (high ATP); median; read-out: CDK2/CyclinE, 2 mM ATP (high ATP), IC50 (median)
pIC50: −log10 of the molar value.

Reference set, count: 5
> print(dat)
                                   compound  reading
1  CN1CCN(c2nc(NCc3nc4c(F)c(F)ccc4[nH]3)n3ncc(C4CC4)c3n2)CC1   < 4.70
2  CN1CCN(c2nc(NCc3nc4ccccc4[nH]3)n3ncc(-c4ccncc4)c3n2)CC1   < 4.70
3  C[C@@H]1CN(c2nc(NCc3nc4ccccc4[nH]3)n3ncc(Br)c3n2)C[C@H](C)N1   < 4.70
4  Cc1cnn2c(NCc3nc4c(F)c(F)ccc4[nH]3)nc(N(C)CC(C)(C)O)nc12   < 4.70
5  CN(C)C1CCN(c2nc(NCc3nc4ccccc4[nH]3)n3ncc(Br)c3n2)CC1   < 4.70

Give pIC50 for the following compound: FC(F)(F)c1ccc2[nH]c(CNc3nc(N4CC5CCC(C4)N5)nc4c(C5CC5)cnn34)nc2c1
< 4.73

State, in one line, measured pIC50 of CN1C2CCC1CN(c1nc(NCc3nc4c(F)c(F)ccc4[nH]3)n3ncc(C(F)(F)F)c3n1)C2
< 4.70
